Biological target: HiBiT–A1AR (human adenosine A1 receptor) (Homo sapiens, UniProt P30542, M1L)
Assay: NanoBiT internalization assay (loss of cell-surface HiBiT–A1AR luminescence)
Format: cell-based
Design: creating the full-length fusion protein HiBiT–A1AR; expressed in transfected cells
Details: HEK293 HiBiT–A1AR, panel of A1 receptor agonists
reportedProperty: agonist character in internalization assay

[[record]]
smilesstr = "OC[C@H]1O[C@@H](n2cnc3c(NC4CCCC4)nc(Cl)nc32)[C@H](O)[C@@H]1O"
measurement = "full agonists"

[[record]]
smilesstr = "C[C@@]1(O)[C@H](O)[C@@H](CO)O[C@H]1n1cnc2c(NC3CCCC3)nc(Cl)nc21"
measurement = "full agonists"

